Values were extracted from patent US20130252930A1.

experiment: Human liver microsome stability assay (Biological Example 8b)
details: liver microsomes, pH 7.4
measure_name: half-life at 1 μM

compound	result
CC1C[C@@H]2[C@H](CC[C@]3(C)C(c4cccnc4)CC[C@@H]23)[C@@]2(C)CCC(=O)C=C12 (stereo partly shown) [Compound 420]	1 to 50 min

INPUT: Bench note: what half-life at 1 μM did CN1C(=O)CCC[C@@]2(C)C1=CCC1C2CC[C@]2(C)C(c3cccnc3)=CCC12 (stereo partly shown) [Compound 180] show?
OUTPUT: 1 to 50 min

INPUT: Record: C[C@]12CC[C@H](O)CC1=CCC1C2CC[C@]2(C)C(c3cncc(C(F)F)c3)=CCC12 (stereo partly shown) [Compound 279]
OUTPUT: > 50 min

INPUT: Now try COc1cncc(C2=CCC3C4CC=C5N(C)C(=O)C[C@]5(C)C4CC[C@]23C)c1 (stereo partly shown) [Compound 187] .
OUTPUT: 1 to 50 min
